# assay.remarks: in vivo
# cond: Balb/c nu/nu, mouse, spleen, 48 pmol, total radioactivity
assay.readout: tissue uptake at 1 h (%ID/g)

1) CC1=NNC(c2ccc(CNC(=O)c3ccc(F)nc3)cc2)=C2CCC[C@H](OC(=O)NCCOCCOCCC(=O)N[C@H](Cc3ccccc3)C(=O)N[C@@H](CCC(N)=O)C(=O)N[C@@H](Cc3c[nH]c4ccccc34)C(=O)N[C@@H](C)C(=O)N[C@H](C(=O)NCC(=O)N[C@@H](Cc3c[nH]cn3)C(=O)N[C@@H](CC(C)C)[C@@H](O)CC(=O)N[C@@H](CC(C)C)C(N)=O)C(C)C)CCC12 (stereo partly shown) ... 0.9
